The measurements presented in this section are drawn from patent US8741892B2.

- TEST SYSTEM: human recombinant mGluR5 (Homo sapiens, UniProt P41594)
- Sequence (P41594 21-1212): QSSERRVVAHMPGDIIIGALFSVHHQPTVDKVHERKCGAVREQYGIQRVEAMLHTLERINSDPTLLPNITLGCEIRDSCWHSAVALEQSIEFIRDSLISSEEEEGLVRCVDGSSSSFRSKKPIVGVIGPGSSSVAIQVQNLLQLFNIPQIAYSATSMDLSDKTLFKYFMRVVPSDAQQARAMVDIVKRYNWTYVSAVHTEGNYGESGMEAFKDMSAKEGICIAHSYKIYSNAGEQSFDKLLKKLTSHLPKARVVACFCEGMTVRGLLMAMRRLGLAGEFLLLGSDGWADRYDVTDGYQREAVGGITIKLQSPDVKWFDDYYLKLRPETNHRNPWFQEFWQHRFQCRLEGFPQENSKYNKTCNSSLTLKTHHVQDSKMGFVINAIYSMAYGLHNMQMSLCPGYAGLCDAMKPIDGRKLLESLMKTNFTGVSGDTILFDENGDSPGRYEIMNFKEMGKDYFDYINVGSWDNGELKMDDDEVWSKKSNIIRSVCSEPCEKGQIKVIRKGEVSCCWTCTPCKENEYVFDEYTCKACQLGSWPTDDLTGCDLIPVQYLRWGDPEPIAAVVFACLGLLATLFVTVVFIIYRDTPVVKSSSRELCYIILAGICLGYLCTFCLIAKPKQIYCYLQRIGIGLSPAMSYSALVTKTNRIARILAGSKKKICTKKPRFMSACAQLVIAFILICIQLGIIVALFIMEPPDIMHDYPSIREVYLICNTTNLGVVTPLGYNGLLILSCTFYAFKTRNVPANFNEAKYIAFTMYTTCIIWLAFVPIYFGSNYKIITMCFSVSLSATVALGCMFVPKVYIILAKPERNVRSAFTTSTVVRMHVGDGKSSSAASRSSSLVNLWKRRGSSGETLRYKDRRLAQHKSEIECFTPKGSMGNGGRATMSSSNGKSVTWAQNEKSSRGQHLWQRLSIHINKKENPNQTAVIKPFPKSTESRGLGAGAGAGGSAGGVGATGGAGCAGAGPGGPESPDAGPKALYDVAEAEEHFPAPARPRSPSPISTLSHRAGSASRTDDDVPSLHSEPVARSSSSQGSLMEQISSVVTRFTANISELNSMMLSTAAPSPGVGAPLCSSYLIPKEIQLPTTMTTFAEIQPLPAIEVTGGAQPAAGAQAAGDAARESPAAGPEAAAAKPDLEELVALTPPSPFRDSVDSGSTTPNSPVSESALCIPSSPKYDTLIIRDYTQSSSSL
- PROTOCOL NOTES: positive modulation of mGluR5, calcium based FLIPR assay
- RUN CONDITIONS: HEK 293 cell line expressing human recombinant mGluR5; EC50 of the modulation from peak Ca fluorescence signal after glutamate at approx. 5% basal stimulation
pEC50: −log10 of the molar value.
Response key: 1 (yes) means pEC50 >= 7; 0 (no) means pEC50 < 7.

CCc1cc(-c2cccc(Cl)c2)nn1CC(=O)N1Cc2nc(C)sc2C1: 0 (no)
CCc1cc(-c2cccc(C#N)c2)nn1CC(=O)N1CCC(c2ncc(C)o2)CC1: 0 (no)
CCc1cc(-c2ccc(F)cc2)nn1CC(=O)N1CCc2nc(C)sc2CC1: 0 (no)
C=CCNC(=O)Nc1nc2c(s1)CN(C(=O)Cn1nc(-c3ccccc3)cc1-c1ccccc1)CC2: 0 (no)
Nc1ccc2c(c1)CCN(C(=O)Cn1nc(-c3ccccc3)cc1-c1ccccc1)CC2: 0 (no)
CCc1nc2c(o1)CN(C(=O)Cn1nc(-c3ccc(F)c(C)c3)cc1-c1ccccc1)C2: 1 (yes)
CCc1cc(-c2ccc(F)cc2)nn1CC(=O)N1CCc2nc(N)sc2CC1: 0 (no)
CC(=O)Nc1nc2c(s1)CCN(C(=O)Cn1nc(-c3ccccc3)cc1-c1ccccc1)CC2: 0 (no)
Cc1coc(N2CCN(C(=O)Cn3nc(-c4ccc(F)c(C)c4)cc3-c3ccccc3)CC2)n1: 1 (yes)
Cc1cc(C2=CCN(C(=O)Cn3nc(-c4ccc(F)c(C)c4)cc3-c3ccccc3)CC2)ncn1: 1 (yes)
O=C(Cn1nc(-c2ccccc2)cc1-c1ccccc1)N1CCc2c(F)ccc(F)c2C1: 0 (no)
CCc1cc(-c2ccc(F)c(C)c2)nn1CC(=O)N1CCN(c2nccs2)CC1: 1 (yes)
Cc1cc(-c2cc(-c3ccccc3)n(CC(=O)N3CCc4ncnc(-c5ccccc5)c4CC3)n2)ccc1F: 1 (yes)
